# system: P2Y1 (Homo sapiens)
# Sequence (P47900 whole entry): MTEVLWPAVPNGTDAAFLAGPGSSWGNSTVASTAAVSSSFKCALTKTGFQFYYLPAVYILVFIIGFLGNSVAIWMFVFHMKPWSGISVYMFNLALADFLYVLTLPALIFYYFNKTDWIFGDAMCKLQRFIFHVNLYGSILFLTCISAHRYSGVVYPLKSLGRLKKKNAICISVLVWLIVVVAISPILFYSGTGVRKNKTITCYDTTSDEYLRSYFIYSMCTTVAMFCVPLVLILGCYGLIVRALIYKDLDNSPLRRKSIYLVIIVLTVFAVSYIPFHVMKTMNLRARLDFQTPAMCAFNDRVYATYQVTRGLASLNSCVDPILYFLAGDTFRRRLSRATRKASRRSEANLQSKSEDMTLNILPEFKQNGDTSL
# assayComment: Calcium mobilization assay, P2Y1;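 note: test compound added first then a maximal dose of the cognate agonist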
# Type: cell-based
# Set-up: key: no response (NR)
# testSettings: activation of P2Y1 receptor
Counter-ions that a name gives are not always drawn.

compound | Calcium Mobilization P2Y1
CCNC(=O)Nc1ncnc2c1ncn2[C@@H]1O[C@H](COP(=O)(O)OP(=O)(O)OC[C@H]2O[C@@H](n3cnc4c(NC(=O)NCC)ncnc43)[C@H]3OC(Cc4ccccc4)OC23)C2OC(Cc3ccccc3)OC21 (stereo partly drawn) [Compound 46] | NR
O=C(Nc1ncnc2c1ncn2[C@@H]1O[C@H](COP(=O)(O)O)C2OC(Cc3ccccc3)O[C@@H]21)NC1CCCC1 (stereo partly drawn) [Compound 25] | NR
CCNC(=O)Nc1ncnc2c1ncn2[C@@H]1O[C@H](COP(=O)(O)O)C2OC(Cc3ccccc3)O[C@@H]21 (stereo partly drawn) [Compound 24] | NR
O=C(Nc1ccccc1)Nc1ncnc2c1ncn2[C@@H]1O[C@H](COP(=O)(O)O)C2OC(/C=C/c3ccccc3)O[C@@H]21 (stereo partly drawn) [Compound 28, 2′,3′-cinnamyl acetal-6-N-phenylurea AMP] | NR
CCCCCCNC(=O)Nc1ncnc2c1ncn2[C@@H]1O[C@H](COP(=O)(O)O)C2OC(/C=C/c3ccccc3)O[C@@H]21 (stereo partly drawn) [Compound 26] | NR
CCNC(=O)Nc1ncnc2c1ncn2[C@@H]1O[C@H](COP(=O)(O)OP(=O)(O)OC[C@H]2O[C@@H](n3cnc4c(NC(=O)NCC)ncnc43)[C@H]3OC(C#Cc4ccccc4)OC23)C2OC(C#Cc3ccccc3)OC21 (stereo partly drawn) [Compound 45] | NR
CCNC(=O)Nc1ncnc2c1ncn2[C@@H]1O[C@H](COP(=O)(O)O)C2O[C@H](c3ccccc3)O[C@@H]21 (stereo partly drawn) [Compound 42] | NR
CCNC(=O)Nc1ncnc2c1ncn2[C@@H]1O[C@H](COP(=O)(O)O)C2OC(c3ccccc3)O[C@@H]21 (stereo partly drawn) [Compound 36] | NR
CCCCNC(=O)Nc1ncnc2c1ncn2[C@@H]1O[C@H](COP(=O)(O)O)C2OC(C#Cc3ccccc3)O[C@@H]21 (stereo partly drawn) [Compound 33] | NR
O=C(Nc1ccccc1)Nc1ncnc2c1ncn2[C@@H]1O[C@H](COP(=O)(O)O)C2OC(Cc3ccccc3)O[C@@H]21 (stereo partly drawn) [Compound 22] | NR
CCCCCCNC(=O)Nc1ncnc2c1ncn2[C@@H]1O[C@H](COP(=O)(O)O)C2OC(C#Cc3ccccc3)O[C@@H]21 (stereo partly drawn) [Compound 32] | NR
CCNC(=O)Nc1ncnc2c1ncn2[C@@H]1O[C@H](COP(=O)(O)O)C2OC(/C=C/c3ccccc3)O[C@@H]21 (stereo partly drawn) [Compound 27] | NR
CCNC(=O)Nc1ncnc2c1ncn2[C@@H]1O[C@H](COP(=O)(O)O)C2OC(C#Cc3ccccc3)O[C@@H]21 (stereo partly drawn) [Compound 35] | NR
CCNC(=O)Nc1ncnc2c1ncn2[C@@H]1O[C@H](COP(=O)(O)O)C2O[C@H](/C=C/c3ccccc3)OC21 (stereo in doubt) [Compound 41, bis sodium salt] | NR
CCCCCCNC(=O)Nc1ncnc2c1ncn2[C@@H]1O[C@H](COP(=O)(O)O)C2OC(Cc3ccccc3)O[C@@H]21 (stereo partly drawn) [Compound 23] | NR
O=C(Nc1ccccc1)Nc1ncnc2c1ncn2[C@@H]1O[C@H](COP(=O)(O)O)C2OC(C#Cc3ccccc3)O[C@@H]21 (stereo partly drawn) [Compound 31] | NR
CCNC(=O)Nc1ncnc2c1ncn2[C@@H]1O[C@H](COP(=O)(O)O)C2O[C@@H](c3ccccc3)O[C@@H]21 (stereo partly drawn) [Compound 43] | NR
CCNC(=O)Nc1ncnc2c1ncn2[C@@H]1O[C@H](COP(=O)(O)OP(=O)(O)OC[C@H]2O[C@@H](n3cnc4c(NC(=O)NCC)ncnc43)[C@H]3OC(c4ccccc4)OC23)C2OC(c3ccccc3)OC21 (stereo partly drawn) [Compound 47] | NR
